System Tested: Aedes aegypti OR8 (AaOR8) (Aedes aegypti, UniProt Q16MN0)
Sequence (Q16MN0 1-422): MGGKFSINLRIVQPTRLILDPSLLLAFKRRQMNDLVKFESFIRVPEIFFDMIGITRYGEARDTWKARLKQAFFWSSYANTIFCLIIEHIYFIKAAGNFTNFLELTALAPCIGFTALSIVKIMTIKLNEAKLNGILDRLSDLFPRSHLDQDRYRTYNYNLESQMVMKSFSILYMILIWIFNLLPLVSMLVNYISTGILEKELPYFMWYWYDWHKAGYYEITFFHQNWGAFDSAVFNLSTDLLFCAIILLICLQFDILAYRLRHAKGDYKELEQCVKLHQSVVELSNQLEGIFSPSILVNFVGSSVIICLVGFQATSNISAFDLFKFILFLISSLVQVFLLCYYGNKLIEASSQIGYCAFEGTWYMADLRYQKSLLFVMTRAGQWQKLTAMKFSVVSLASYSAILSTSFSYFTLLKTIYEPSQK
Sequence (Q178U6 whole entry partner): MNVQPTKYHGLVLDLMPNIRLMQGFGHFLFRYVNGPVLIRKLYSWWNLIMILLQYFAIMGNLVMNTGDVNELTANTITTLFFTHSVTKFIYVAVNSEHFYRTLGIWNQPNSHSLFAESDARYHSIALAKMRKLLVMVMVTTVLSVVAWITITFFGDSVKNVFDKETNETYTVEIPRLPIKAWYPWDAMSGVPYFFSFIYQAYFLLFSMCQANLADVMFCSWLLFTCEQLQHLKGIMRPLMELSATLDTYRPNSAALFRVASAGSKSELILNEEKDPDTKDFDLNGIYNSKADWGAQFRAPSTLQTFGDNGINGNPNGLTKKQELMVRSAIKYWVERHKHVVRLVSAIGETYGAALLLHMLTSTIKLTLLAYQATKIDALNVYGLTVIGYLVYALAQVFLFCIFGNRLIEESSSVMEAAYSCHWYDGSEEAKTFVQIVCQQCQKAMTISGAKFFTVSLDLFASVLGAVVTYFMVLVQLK
Test Method Notes: Activation of mosquito odorant receptor OR8 from Aedes aegypti (AaOR8), FIG. 17A
Condition Summary: molar concentration, read-out: A. agypti OR8 EC50
Reported Property: EC50 (nM)

molecule="C=C[C@H](O)CCCCC [(R)-1-Octen-3-ol, (R)-1-octen-3-ol]" quantitative_result=213
